study system: T1, SG115 (human, UniProt P01857 1-328 = IgG part)
T1 construct: also called modified IgG heavy chain constant region SG115
T1 sequence (P01857 other isoform, or with tags, fused parts or gaps limits assumed): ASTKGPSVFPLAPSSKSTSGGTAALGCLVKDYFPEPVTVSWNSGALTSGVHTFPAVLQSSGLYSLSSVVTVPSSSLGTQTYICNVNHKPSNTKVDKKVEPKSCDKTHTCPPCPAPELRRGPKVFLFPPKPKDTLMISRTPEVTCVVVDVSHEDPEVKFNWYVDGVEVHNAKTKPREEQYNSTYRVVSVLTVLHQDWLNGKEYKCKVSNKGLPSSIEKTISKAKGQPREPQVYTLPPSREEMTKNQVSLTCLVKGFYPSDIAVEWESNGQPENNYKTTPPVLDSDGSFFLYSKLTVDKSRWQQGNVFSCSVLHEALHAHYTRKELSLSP
test protocol: ELISA, OD405 against dose (ng/mL, log axis 1-100)
reported metric: binding result

SKA0171 (antibody, V domains shown, Recombinant rabbit monoclonal from B-cell cloning, expressed in FreeStyle 293-F cells; the first screen used B-cell culture supernatant; also called Anti-SG115 Antibody; rabbit Anti Fc-Mutation Antibody) VH: QSLEESGGGLVQPEGSLTLSCTASGFSFSSSYYMCWVRQAPGKGLEWIACIYGGNSVITYYANWAKGRFTISETSSTTVTLQMTSLTAADTATYFCAREVHYDYLYTTYGYANLWGPGTLVTVSS VL: AIKMTQTPASVSAVVGGTVTINCQASETIYSGLAWYQQKPGQPPKLLIYDTANLETGVSSRFKGSGSGTEYTLTISDLECDDAATYFCLYAYYSGGSADNAFGGGTEVVVKG :: binds
SKA0141 (antibody, V domains shown, Recombinant rabbit monoclonal from B-cell cloning, expressed in FreeStyle 293-F cells; the first screen used B-cell culture supernatant; also called Anti-SG115 Antibody; rabbit Anti Fc-Mutation Antibody) VH: QSLEESGGDLVKPGASLTLTCTASGFSFSSSYYMCWVRQAPGKGLEWIACIYAGSSGSTYYASWAKGRFTISKTSSTTVTLQMTSLTAADTATYFCARDGDENMLVGGYFNLWGPGTLVTVSS VL: ALVMTQTPSSVSAAVGGTVTINCQASHNIYSNLAWYQQKPGQRPKLLIYGASNLESGVPSRFKGSGSGTEYTLTISDLECDDAATYYCQSAYYSSNAGYNAFGGGTEVVVKG :: binds
SKA0127 (antibody, V domains shown, Recombinant rabbit monoclonal from B-cell cloning, expressed in FreeStyle 293-F cells; the first screen used B-cell culture supernatant; also called Anti-SG115 Antibody; rabbit Anti Fc-Mutation Antibody) VH: QSVEESGGRLVTPGTPLTLTCTVSGIDLSTYAMTWVRQAPGKGLEYIGYINGGGSAYYASWVNGRFTISKTSTTADLKITSPTTEDTATYFCARGPVGSYHRIWGPGTLVTVSS VL: ALVMTQTPSSVSEPVGGTVTINCRASEDIESYLAWYQQKPGQPPKLLIYATSNLETGVPSRFKGSGSGTDYTLTISGVQCADAATYYCQGYYELSSIDNNAFGGGTEVVVKG :: binds
